Property: Kii; scope: individual compounds
Molecular target: Alcohol dehydrogenase (Equus caballus) (UniProt P00327+P00328)
Test: In vitro inhibitory constant against horse liver alcohol dehydrogenase was determined
Reply with a number, then the unit it belongs to.

[
  {
    "COMPOUND": "CCCCC1CC[S+]([O-])C1 (centres undefined)",
    "Kii": "0.63 µM"
  },
  {
    "COMPOUND": "CC1CC[S+]([O-])C1 (centres undefined)",
    "Kii": "7.5 µM"
  },
  {
    "COMPOUND": "CCCCCCC1CC[S+]([O-])C1 (centres undefined)",
    "Kii": "0.19 µM"
  }
]

Please examine the following record next.
[in] Please report the recorded Kii for [O-][S+]1CCC(c2ccccc2)C1 (centres undefined) .
[out] 0.36 µM

* * *

Assay: Compound dose that causes 50% toxicity in mice was determined
Type: organism-based
Settings: mouse, in vivo
ATTRIBUTE_MEASURED: LD50 (µmol/kg)
Answer with a number only, understood to be in µmol/kg.

Answered examples (4):
[
  {
    "COMPOUND": "[O-][S+]1CCC(c2ccccc2)C1 (stereo not given)",
    "ATTRIBUTE_MEASURED": "LD50",
    "MEASURED_NUMBER": 4000
  },
  {
    "COMPOUND": "CCCCCCC1CC[S+]([O-])C1 (stereo not given)",
    "ATTRIBUTE_MEASURED": "LD50",
    "MEASURED_NUMBER": 770
  },
  {
    "COMPOUND": "CCCCC1CC[S+]([O-])C1 (stereo not given)",
    "ATTRIBUTE_MEASURED": "LD50",
    "MEASURED_NUMBER": 1400
  },
  {
    "COMPOUND": "[O-][S+]1CCCC1 [TETRAMETHYLENE SULFOXIDE]",
    "ATTRIBUTE_MEASURED": "LD50",
    "MEASURED_NUMBER": 45000
  }
]

Could you now look at the following compound, please?
[in] # get_value(readout='LD50', item= CC1CC[S+]([O-])C1 (stereo not given) )
[out] 1300
